# targetSystem: UniProt:Q9NYK1
# assayMethodText: Agonist activity at human TLR7 by reporter cell based assay
pEC50: −log10 of the molar value.
measuredQuantity: pEC50

Reference set (3 entries):
CCCCc1nc2c(N)nc3ccccc3c2n1CCCN(Cc1cccc(C(=O)OC)c1)C(=O)CN1CC(O)C1: 5.80
CCCCc1nc2c(N)nc3ccccc3c2n1CCCN(Cc1cccc(C(=O)OC)c1)C(=O)CN1CCN(C(C)=O)CC1: 5.90
CCCCc1nc2c(N)nc3ccccc3c2n1CCCN(Cc1cccc(C(=O)OC)c1)C(=O)CN1CCC(OC)CC1: 6.70

a. CCCCCNc1nc(N)nc(C)c1Cc1cccc(CC(=O)OCCCCN(C)C)c1
b. CCCCc1nc2c(N)nc3ccccc3c2n1CCCN(CCCN(C)C)Cc1cccc(C(=O)OC)c1
c. CCCCCNc1nc(N)nc(C)c1CCCN(Cc1cccc(CC(=O)OC)c1)C(=O)CN1CCC[C@@H]1C(=O)OC
d. CCCCc1nc2c(N)nc3ccccc3c2n1CCCN(Cc1cccc(C(=O)OC)c1)C(=O)CN1CCCCC1
e. CCCCc1nc2c(N)nc3ccccc3c2n1CCCN(Cc1cccc(C(=O)OC)c1)C(=O)CN(CCO)CCO
**Query** Hey, quick one: sort these by pEC50, largest value first please. I'd appreciate it if you listed the labels in the requested order.
**Result** a, d, b, c, e
(a: 7.50, d: 7.10, b: 6.60, c: 6.20, e: 5.80)

###

# targetSystem: Toll-like receptor 7 (Homo sapiens, UniProt Q9NYK1)
# Sequence (Q9NYK1 whole entry): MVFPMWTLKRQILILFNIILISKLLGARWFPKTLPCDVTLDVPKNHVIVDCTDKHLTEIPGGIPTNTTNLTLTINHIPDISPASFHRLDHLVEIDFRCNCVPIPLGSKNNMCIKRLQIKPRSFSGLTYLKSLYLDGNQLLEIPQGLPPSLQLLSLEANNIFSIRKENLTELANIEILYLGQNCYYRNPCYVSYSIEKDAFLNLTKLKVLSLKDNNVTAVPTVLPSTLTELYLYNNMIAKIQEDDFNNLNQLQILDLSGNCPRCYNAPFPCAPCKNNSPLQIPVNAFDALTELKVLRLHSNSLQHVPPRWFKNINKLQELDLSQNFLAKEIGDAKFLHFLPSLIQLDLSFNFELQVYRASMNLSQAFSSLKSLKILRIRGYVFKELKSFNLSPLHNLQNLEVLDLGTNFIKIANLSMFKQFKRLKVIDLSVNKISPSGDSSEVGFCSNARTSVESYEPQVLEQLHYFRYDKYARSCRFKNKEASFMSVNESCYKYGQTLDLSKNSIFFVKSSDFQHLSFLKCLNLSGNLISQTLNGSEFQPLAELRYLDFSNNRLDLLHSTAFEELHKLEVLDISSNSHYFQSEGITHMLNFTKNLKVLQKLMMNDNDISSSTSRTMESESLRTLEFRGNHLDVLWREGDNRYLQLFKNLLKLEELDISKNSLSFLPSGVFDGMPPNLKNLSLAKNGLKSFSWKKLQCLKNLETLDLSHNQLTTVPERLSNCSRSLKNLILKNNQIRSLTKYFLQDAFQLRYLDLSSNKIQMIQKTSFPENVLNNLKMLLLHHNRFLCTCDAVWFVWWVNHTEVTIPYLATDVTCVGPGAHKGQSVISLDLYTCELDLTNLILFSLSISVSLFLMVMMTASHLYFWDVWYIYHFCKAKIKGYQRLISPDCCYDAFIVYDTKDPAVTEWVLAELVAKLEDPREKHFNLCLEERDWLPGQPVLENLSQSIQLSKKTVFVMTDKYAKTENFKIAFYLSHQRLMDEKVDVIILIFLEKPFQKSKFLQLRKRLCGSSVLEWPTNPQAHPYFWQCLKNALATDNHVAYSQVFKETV
# assayMethodText: Agonist activity at human TLR7 transfected in HEK293 cells assessed as induction of SEAP production incubated overnight by SEAP reporter gene based assay
# Format: cell-based
pEC50: −log10 of the molar value.
measuredQuantity: pEC50

Consider the worked cases shown below.
CCOC(=O)COc1ccc(CN(CCCn2c(CCOC)nc3c(N)nc4ccccc4c32)C(=O)CN(C)C)cc1: 6.76
COCCc1nc2c(N)nc3ccccc3c2n1CCCCN(CCCN1CCOCC1)Cc1cccc(OCC(=O)OC(C)(C)C)c1: 6.94
CCOC(=O)COc1cccc(CN(CCCn2c(CCOC)nc3c(N)nc4ccccc4c32)C(=O)CN(CC)CC)c1: 7.26

P. CCOC(=O)COc1ccc(CN(CCCn2c(CCOC)nc3c(N)nc4ccccc4c32)C(=O)CN2CCCC2)cc1
Q. COCCc1nc2c(N)nc3ccccc3c2n1CCCCN(CCN(C)C)Cc1cccc(OCC(=O)OC(C)(C)C)c1
**Query** Given the listed records, identify the one among P and Q with higher pEC50. Label of pick, please.
**Result** Q
(Q: 7.25, P: 6.83)
